- assayed_system: human neurokinin-1-receptor (NK1R) (Homo sapiens)
- Sequence (P25103 whole entry): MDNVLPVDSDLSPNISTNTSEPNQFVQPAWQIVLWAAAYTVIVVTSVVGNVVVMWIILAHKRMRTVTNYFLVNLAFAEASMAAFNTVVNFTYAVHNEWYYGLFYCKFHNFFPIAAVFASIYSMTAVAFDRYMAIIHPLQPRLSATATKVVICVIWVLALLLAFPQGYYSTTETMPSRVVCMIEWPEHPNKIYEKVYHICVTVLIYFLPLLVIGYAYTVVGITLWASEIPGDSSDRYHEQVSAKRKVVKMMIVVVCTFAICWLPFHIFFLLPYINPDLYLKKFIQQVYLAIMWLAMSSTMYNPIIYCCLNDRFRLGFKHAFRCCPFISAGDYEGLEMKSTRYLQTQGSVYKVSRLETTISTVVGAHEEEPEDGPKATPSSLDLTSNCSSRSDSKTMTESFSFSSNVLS
Please assign False whenever IC50 is at or above 4 nM, and True whenever it is below.

Solved cases (5 shown):
{"compound": "COc1cccc(C(Cc2ccccc2)C2C(OCc3cc(C(F)(F)F)cc(C(F)(F)F)c3)C3CCN2CC3)c1 (single isomer, unassigned) [4: ISOMER A]", "group": "False"}
{"compound": "FC(F)(F)c1cc(COC2C3CCN(CC3)C2C(Cc2ccccc2)c2ccccc2)cc(C(F)(F)F)c1 (single isomer, unassigned) [2: ISOMER C]", "group": "False"}
{"compound": "FC(F)(F)c1cc(COC2C3CCN(CC3)C2C(Cc2ccccc2)c2ccccc2)cc(C(F)(F)F)c1 (single isomer, unassigned) [2: ISOMER A]", "group": "False"}
{"compound": "Cc1cc(C)cc(COC2C3CCN(CC3)C2C(Cc2ccccc2)c2ccccc2)c1 (single isomer, unassigned) [1: ISOMER C]", "group": "False"}
{"compound": "Cc1cc(C)cc(COC2C3CCN(CC3)C2C(Cc2ccccc2)c2ccccc2)c1 (single isomer, unassigned) [1: ISOMER A]", "group": "True"}

Exercise: Field: below-cutoff. Rule: recorded IC50 strictly less than 4 nM. Subject: FC(F)(F)c1cc(COC2C3CCN(CC3)C2C(Cc2ccccc2)c2ccccc2)cc(C(F)(F)F)c1 (single isomer, unassigned) [2: ISOMER B]
Key: False

Exercise: Proceed to COc1ccc(C(Cc2ccccc2)C2C(OCc3cc(C(F)(F)F)cc(C(F)(F)F)c3)C3CCN2CC3)cc1 (single isomer, unassigned) [3: ISOMER A]
Key: True

Values from patent US5288730A
